# System: MS2 coat protein
# methodNotes: apparent KD of MS2 coat protein, switch ON state; designed switch direction (-1 OFF switch, 1 ON switch): -1; higher = weaker reporter binding
# assayConditions: FMN input: 0 or 200 uM; Eterna round: R93 (includes R88 designs)
Exercise: for every item that follows, state its recorded apparent KD of MS2 coat protein.
Provide the reading as a plain figure in nM.

# query: apparent KD of MS2 coat protein | item GUAGAGUGAGGAUAUGAAUAAAAGAAGAGAAAGAGAAAGCAUCAGAAGGCACAUGAGGAUCACCCAUGUAUGAA [JR_Exc004_Sub1225] | system: MS2 coat protein
29.2

Entry AAGAAGAUAGGAUAUACAAGAAAGAAAGAAAAGAAAAGAAAACAUGAGGAUCACCCAUGUAGAAGGAUCUAGAA [EteRNA is fun!] , system MS2 coat protein: what apparent KD of MS2 coat protein was measured?
30.8

Form field - read-out: apparent KD of MS2 coat protein; system: MS2 coat protein; submitted item: AACAAGACAGGAUAUACAUGAGGAUCACCCAUGUGAGAAUAAAGUAGCGUAACACAAAGUAGAAGGGUCAUGGA [Ruby 7]
29.7

====

# System: MS2 coat protein
# methodNotes: apparent KD of MS2 coat protein; higher = weaker reporter binding
# assayConditions: Eterna round: R107; input ligand: theophylline 2 mM
valueKind: apparent KD of MS2 coat protein (nM)
Number only, in nM; omit the unit.

Entry AAUGUCGGAUCGGCCGCCACUGGUUGGCCCUGUGUACAUGAGGAUCACCCAUGUCCAUCCCAAACCAGGACCGGGAUCUUUAUGU [Xeananor] : reported apparent KD of MS2 coat protein = ?
40.4

Param item = AUACAUGAGGAUCACCCAUGUCAUUCAGAAGGAGCGUCAUUUUAGACAGGUAGGUCGCUGAUAUUAUCUUUAUACUUUAUGUUUA [JR_ExcArginiA_Sub023] ; retrieve measured apparent KD of MS2 coat protein.
18.2

Value lookup for apparent KD of MS2 coat protein; key = CCUCGUGCAACAUGAGGAUCACCCAUGUACCGAGGACCGGUACGGCCGCCACUCGAAAACGAGUACCAUUAGCGAAAGCUGAUGG [Trp A SS mod1]
14.2

// apparent KD of MS2 coat protein lookup, key: GCAUCCUAGUCGGCCGCCACUGCAUCACCGGUCCUAGGUGAUCAACAUGAGGAUCACCCAUGUAGCAGGACCGGGACUAGGAUGC [(Trp1)-(MT)''-(MT)'-(Ms2)-(Trp2)_Design2]
636

Any idea what its apparent KD of MS2 coat protein is? The sequence is UGUCAUGGAAACAUGACUGGUUCUACCGGUCGAGGACCGGUACGGCCGCCACUCGGUUGGUGGCACAUGAGGAUCACCCAUGUUA [SS Tryp A #13]
44.7

GET /values?readout=apparent KD of MS2 coat protein&item= GCCGGACUUUCGGCCGCCACUGAGAGAGUCGUGUGAACAUGAGGAUCACCCAUGUAAUAUAUAUACAGGACCGGGAGGGUCCGGC [4.T]
12.7

For the sequence shown here, UAUCGUCAGACGGCCGCCACUAGAACAUGAGGAUCACCCAUGUACGGCCGCUCGGUCCUCAUGACUAGGACCGGGUCUGACGAAU [(Trp1)-(Ms2)-(T)'-(M)'-(Trp2)_Design22] , give the reported apparent KD of MS2 coat protein.
12

Look at this sequence and give its reported apparent KD of MS2 coat protein. CACGAAAGAUCGGCCGCCACUAAUCGAUGUGUUCUUUCACAUGAGGAUCACCCAUGUUCUUGCGUUAGGACCGGGAUUGAGCGUG [#01 Exclusion Tryptophan B]
52.4

Fill in the blank: the reported apparent KD of MS2 coat protein of `ACACGGCAUGAUGGAUCACCUCGUGAAUCACGAGGACCGGUACGGCCGCCACUCGAAAACCGUGACCUGUACGAAAAGUGCAGGA` is ____.
758

What value of apparent KD of MS2 coat protein has been reported for the following sequence? AAGACAUGAGGAUCACCCAUGUCGUCAACACGAGGACCGGUACGGCCGCCACUCGCAUGCCAAUGAGCGCAUGCGGCCUGGGUAU [Exclusion Tryp A GF4]
13.8

What value of apparent KD of MS2 coat protein has been recorded for this entry: GGCACCAGGAGAAGGAGCGUGAAGACAUGAGGAUCACCCAUGUAGAGGCCCGUACAGGGUUCGCAGGUAGGUCGCUCCUGGUGCC [#1 Same State - Arginine B Attempt #12 (HarryS)]
22.6

Item AGUAGCUGCCGAAGGAGCGCCGUGUUCCUACAUGAGGAUCACCCAUGUAGCGUUGGGUUACGGCAGGUAGGUCGCGGCAGAUAGG [#18 Same State - Arginine B] has what recorded apparent KD of MS2 coat protein?
24.5

Name the recorded apparent KD of MS2 coat protein for UAUCCACAUGAGGAUCACCCAUGUUAGGAAGGAGCGGUGAAUGAACCAGGUAGGUCGCCUAGCUGAGGACUGUCGAUGGAUUCGU [Exclusion - Arginine A (Freestyle 17)] .
24.5

I would be grateful if you could share the reported apparent KD of MS2 coat protein for AGAGCAUUGACGGCCGCCACUCGUGUCACAUGAGGAUCACCCAUGUGACGGGUGAUCGCCCGGUUGAGGACCGGGUCAAUGCUCA [Omei Tryp SS B v8] .
11.2

Could you share which apparent KD of MS2 coat protein value was measured for AAGAGUUGACAAAAGUCAGCUCAAACCGAAGGAGCGGGAGAAAUCCCAGGUAGGUCGCGGUUACAUGAGGAUCACCCAUGUUCCU [ArgAS 6 #BothOrNeither #OpenEnded] ?
300

Name the reported apparent KD of MS2 coat protein value associated with the sequence GUCGGAGUCUGAAGGAGCGACAUGAGGAUCACCCAUGUCUCCCGUUAUGGGAGUUCCUUAGGUCAGGUAGGUCGCAGACUCCGAC [#1 Exclusion - Arginine B Attempt #25 (Inspired by Omei)]
144

Name the reported apparent KD of MS2 coat protein value associated with the sequence GUCCAAAGGUCGGCCGCCACUGUAGGAUGUGUUCUUUCACAUGAGGAUCACCCAUGUUGUUAUUAUAGGACCGGGAUUGUAGGAC [39MS split4]
21.5

Quick check: apparent KD of MS2 coat protein of UAUUAUCAGUCGGCCGCCACUGACACAUGAGGAUCACCCAUGUAAUUUGGGUUAUAUAUAAAUUACAGGACCGGGACAAAGGCUA [JR_ExcTryptoB_Sub013] ?
396

What value of apparent KD of MS2 coat protein has been reported for the following sequence? UGUACCUAGUCGGCCGCCACUCCAAAAGGAGAGGAUCACCCUCCUAAACGAGUCAAAGACUCGAGGAGGACCGGGACUAGGUACU [Palindromic MS2 #AlternativeMS2 #Palindrome #StaticStem]
33.9

// query apparent KD of MS2 coat protein value for entry GUAUUUAUAUGAAGGAGCGUCGAAAAUGGGUAAACAUGAGGAUCACCCAUGUAAAGGGAACGACAGGUAGGUCGCAUAUGGAUAC [AstromonsSSArgB#25]
279
